- assayProtocol: Human plasma stability assay (Test 2)
- Format: in vitro ADME
- reportedConditions: 0.5 uM test compound, 37°C, up to 120 minutes, heparinated human plasma, read-out: Test 2 T1/2
Catalogue of compounds with associated half-life at 0.5 uM

>  <compound>
CCCCCC(O)CCC1C(O)CC2Cc3c(cccc3OCC(=O)OC(C)(C)C)CC21 (centres unmarked) [Compound 28]

>  <half-life at 0.5 uM>
0.25 to 0.5 h

$$$$
>  <compound>
CCCCCC(O)CCC1C(O)CC2Cc3c(cccc3OCC(=O)OC(C)C)CC21 (centres unmarked) [Compound 20]

>  <half-life at 0.5 uM>
0.517 to 1 h

$$$$
>  <compound>
CCCCCC(O)CCC1C(O)CC2Cc3c(cccc3OCC(=O)OCCCF)CC21 (centres unmarked) [Compound 4]

>  <half-life at 0.5 uM>
< 0.25 h

$$$$

The value of half-life at 0.5 uM measured for the compound CCCCCC(O)CCC1C(O)CC2Cc3c(cccc3OCC(=O)OC3CC4CCC3C4)CC21 (centres unmarked) [Compound 19] turned out to be 0.517 to 1 h

The value of half-life at 0.5 uM measured for the compound CCCCCC(O)CCC1C(OC(=O)OCC)CC2Cc3c(cccc3OCC(=O)OC)CC21 (centres unmarked) [Compound 25] turned out to be > 1 h

The value of half-life at 0.5 uM measured for the compound CCCCCC(O)CCC1C(O)CC2Cc3c(cccc3OCC(=O)OC)CC21 (centres unmarked) [Compound 15] turned out to be < 0.25 h

The value of half-life at 0.5 uM measured for the compound CCCCCC(O)CCC1C(O)CC2Cc3c(cccc3OCC(=O)OC(C)C(=O)OC)CC21 (centres unmarked) [Compound 6] turned out to be < 0.25 h

The value of half-life at 0.5 uM measured for the compound CCCCCC(O)CCC1C(OC(=O)CC(C)C)CC2Cc3c(cccc3OCC(=O)OC)CC21 (centres unmarked) [Compound 23] turned out to be > 1 h

The value of half-life at 0.5 uM measured for the compound CCCCCC(O)CCC1C(O)CC2Cc3c(cccc3OCC(=O)NCCCO)CC21 (centres unmarked) [Compound 11] turned out to be > 1 h

The value of half-life at 0.5 uM measured for the compound CCCCCC(O)CCC1C(O)CC2Cc3c(cccc3OCC(=O)NCC(F)(F)F)CC21 (centres unmarked) [Compound 14] turned out to be > 1 h

The value of half-life at 0.5 uM measured for the compound CCCCCC(O)CCC1C(O)CC2Cc3c(cccc3OCC(=O)NCC(=O)OC)CC21 (centres unmarked) [Compound 12] turned out to be > 1 h

The value of half-life at 0.5 uM measured for the compound CCCCCC(O)CCC1C(O)CC2Cc3c(cccc3OCC(=O)OC3CCOC3)CC21 (centres unmarked) [Compound 5] turned out to be < 0.25 h

The value of half-life at 0.5 uM measured for the compound CCCCCC(O)CCC1C(OC(=O)C2CC2)CC2Cc3c(cccc3OCC(=O)OC)CC21 (centres unmarked) [Compound 24] turned out to be > 1 h

The value of half-life at 0.5 uM measured for the compound CCCCC[C@H](O)CC[C@@H]1[C@H]2Cc3cccc4c3C[C@H]2C[C@H]1OC(=O)CO4 [Compound 57, Treprostinil 2-hydroxy lactone] turned out to be > 1 h

The value of half-life at 0.5 uM measured for the compound CCCCCC(O)CCC1C(O)CC2Cc3c(cccc3OCC(=O)N(C)CC(=O)OC)CC21 (centres unmarked) [Compound 13] turned out to be > 1 h

The value of half-life at 0.5 uM measured for the compound CCCCCC(O)CCC1C(O)CC2Cc3c(cccc3OCC(=O)OCC3CC3)CC21 (centres unmarked) [Compound 1] turned out to be < 0.25 h

The value of half-life at 0.5 uM measured for the compound CCCCCC(O)CCC1C(O)CC2Cc3c(cccc3OCC(=O)NCC(F)(F)C(F)(F)F)CC21 (centres unmarked) [Compound 21] turned out to be > 1 h
